From: paper PMC9919490

Record form. Attribute: pIC50. Fill in for each entry.
tested on: PC3 cells; test: MTT cytotoxicity assay, PC3 (p53 neg); format: cell-based; conditions: 48 h
pIC50: −log10 of the molar value.

As a guide, the following entries are already answered.
>>> print(df.to_string())
                                   molecule     target  value_observed
0  CN1C[C@H](c2ccc(Cl)cc2)[C@]2(NC(=S)N(c3ccccc3)C2=O)[C@]12C(=O)Nc1ccc(Cl)cc12 (racemic)  PC3 cells          < 4.00
1  CN1C[C@H](c2ccc(F)cc2)[C@]2(NC(=S)N(c3ccc(Cl)cc3)C2=O)[C@]12C(=O)Nc1ccccc12 (racemic)  PC3 cells          < 4.00

// returns reported pIC50 for input CN1C[C@H](c2ccncc2)[C@]2(NC(=S)N(c3ccccc3)C2=O)[C@]12C(=O)Nc1ccccc12 (racemic)
< 4.00
